Parameter: TGI. Scope: all listed entries.
- System: UACC-62 melanoma
- method-notes: NCI tumour cell line growth inhibition, 48 h

Reference set, count: 5
Cc1cc(C)c2c(c1)C/C(=C\c1cccc(C)c1C(=O)O)C2=O = > 100 µM
COc1cccc(NC(=O)CC(=O)n2nc(-c3ccccc3)c(N=Nc3ccc(Cl)cc3)c2-c2ccccc2)c1 = > 72.7 µM
CC(=O)/C=C/c1ccccc1 = > 100 µM
CC(C)[P+](c1ccccc1)(c1ccccc1)c1ccccc1 = > 100 µM
CC(=O)OCC1OC(SC2=NC(=O)CS2)C(OC(C)=O)C(OC(C)=O)C1OC(C)=O (centres undefined) = > 100 µM

Input O=C(O)c1c2c(cc3c(=O)c4ccccc4[nH]c13)CCCC2 . Output TGI: > 100 µM

Input CN1CCN(Cc2ccc(NC(=O)c3[nH]ncc3Nc3ncnc4[nH]ccc34)cc2)CC1 . Output TGI: 1.82 µM

Input Cc1nc(C)c(N2CCN(CN)CC2)c(=O)[nH]1 . Output TGI: > 100 µM
